# Test system: Vesicular stomatitis virus
# test details: Minimum inhibitory concentration required to reduce vesicular stomatitis virus induced cytopathogenicity by 50% in primary rabbit kidney cells (PRK)
# Assay type: functional
reported metric: MIC

Known results for compounds:
• C[C@H](NC(=O)c1cc(NC(=O)c2cc(NC(=O)CNC(=N)N)cn2C)cn1C)C(=O)N[C@@H](C)C(=O)N[C@@H](C)C(=O)OC(C)(C)C = > 200 µg/mL
• Cn1cc([N+](=O)[O-])cc1C(=O)NCCC(=N)N = > 400 µg/mL
• COC(=O)c1ccc([N+](=O)[O-])n1C = > 400 µg/mL
• Cn1cc([N+](=O)[O-])cc1C(=O)NCCCNCCCCN = > 400 µg/mL

Continue with the next compound.
Q: Endpoint output: MIC of CC(NC(=O)c1cc(NC(=O)c2cc(NC(=O)CNC(=N)N)cn2C)cn1C)C(=O)OC(C)(C)C (stereo not drawn) . Value?
Result: > 400 µg/mL
